- assay_target: XccFPR (Xanthomonas citri pv. citri)
- Sequence (A0AAI7ZED9 1-259): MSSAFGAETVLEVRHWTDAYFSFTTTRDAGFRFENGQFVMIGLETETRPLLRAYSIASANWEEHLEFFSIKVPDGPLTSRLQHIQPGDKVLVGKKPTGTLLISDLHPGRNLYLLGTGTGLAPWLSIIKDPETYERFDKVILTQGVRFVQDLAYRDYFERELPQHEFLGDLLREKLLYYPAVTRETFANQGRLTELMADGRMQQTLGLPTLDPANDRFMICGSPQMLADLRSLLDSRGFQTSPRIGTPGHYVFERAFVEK
- protocol_details: NADPH-dependent DCPIP diaphorase activity of XccFPR, dose-response of inhibitors
- Assay type: biochemical, Xanthomonas citri subsp. citri
- Procedure: When assayed in regular cuvettes, the DCPIP diaphorase activity of XccFPR was determined at 25 °C using a Cary 100 (Agilent Technologies Inc., Santa Clara, CA, USA) spectrophotometer as previously established. […] Positive controls (without any hit compound) were included in every reaction set. […] The DMSO concentration was kept at 2% in all samples. […] The effect of the inhibitors on Km and kcat was determined by fitting the datasets to the Michaelis-Menten model. […]
Attribute: IC50
Write down the numeric answer in µM and omit the unit.

Some compounds with recorded IC50:
{"compound": "Nc1c(Cl)cc(C(=O)Nc2cc(Cl)c(Cl)cc2Cl)cc1Cl", "units_of_measure": "µM", "IC50": 98}
{"compound": "Clc1ccc2sc(SCc3ccccc3)nc2c1", "units_of_measure": "µM", "IC50": 79}
{"compound": "Cc1oc(C(=O)NNC(=O)Nc2cccc(C(F)(F)F)c2)nc1-c1ccccc1", "units_of_measure": "µM", "IC50": 147}
{"compound": "Nc1ccccc1Sc1cc(C(F)(F)F)cc([N+](=O)[O-])c1Sc1ccccc1N", "units_of_measure": "µM", "IC50": 24}
{"compound": "CCOC(=O)c1c(C)c(C#N)c(NC(=O)c2ccccc2)n1-c1ccccc1", "units_of_measure": "µM", "IC50": 127}

Give the value of IC50 reported for the following: N#CC1=C(N)OC2=C(COc3ccc(F)cc32)C1c1ccc(Cl)cc1 (stereo not shown) 210

###

- assay_target: XccFPR (Xanthomonas citri pv. citri)
- protocol_details: NADPH-dependent DCPIP diaphorase activity of XccFPR, dose-response of inhibitors
- Assay type: biochemical, Xanthomonas citri subsp. citri
- condition_notes: at ICmax; 25 °C, 2% DMSO, pH 8.0, 20 nM XccFPR, 95 µM DCPIP, 50 μM NADPH
recorded_endpoint: % Inhibition at ICmax (%)
Write down the numeric answer in % and omit the unit.

Some compounds with recorded % Inhibition at ICmax:
{"compound": "CCOC(=O)c1c(C)c(C#N)c(NC(=O)c2ccccc2)n1-c1ccccc1 [C14]", "% Inhibition at ICmax, %": 85}
{"compound": "O=[N+]([O-])c1ccc(Oc2c(Cl)cccc2Cl)cc1 [C4, 1,3-dichloro-2-(4-nitrophenoxy)benzene]", "% Inhibition at ICmax, %": 86}

In the following, a different compound is considered.
Give the value of % Inhibition at ICmax reported for the following: Cc1oc(C(=O)NNC(=O)Nc2cccc(C(F)(F)F)c2)nc1-c1ccccc1 [C9] 60

###

- assay_target: XccFPR (Xanthomonas citri pv. citri)
- Sequence (A0AAI7ZED9 1-259): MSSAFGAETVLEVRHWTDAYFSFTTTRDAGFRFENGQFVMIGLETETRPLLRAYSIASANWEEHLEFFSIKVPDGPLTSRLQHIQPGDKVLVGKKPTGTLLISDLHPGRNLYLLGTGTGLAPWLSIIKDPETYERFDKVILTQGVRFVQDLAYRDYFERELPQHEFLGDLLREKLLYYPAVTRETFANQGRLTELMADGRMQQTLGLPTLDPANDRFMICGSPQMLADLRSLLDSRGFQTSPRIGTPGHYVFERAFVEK
recorded_endpoint: pKi
Reminder that pKi is minus the log10 of a molar concentration.

Some molecules with recorded pKi:
{"molecule": "O=C(Nc1ccc(Cl)cc1)Nc1nnc(SCc2ccc(Cl)cc2)s1", "recorded_endpoint": "pKi", "observed_result": 5.37}
{"molecule": "CSc1sc(NC(=O)Nc2ccc(F)c(Cl)c2)c(-c2ccc(Cl)cc2)c1C#N", "recorded_endpoint": "pKi", "observed_result": 5.38}
{"molecule": "Cc1c(S(=O)(=O)c2ccc(Cl)cc2)csc1C(=O)Nc1ccc(F)cc1F", "recorded_endpoint": "pKi", "observed_result": 4.21}

Give the value of pKi reported for the following: CSc1sc(NC(=O)Nc2cccc(C(F)(F)F)c2)cc1C#N [D2] 4.55

###

- assay_target: UniProt:P21890
- Sequence (P21890 138-440 limits assumed): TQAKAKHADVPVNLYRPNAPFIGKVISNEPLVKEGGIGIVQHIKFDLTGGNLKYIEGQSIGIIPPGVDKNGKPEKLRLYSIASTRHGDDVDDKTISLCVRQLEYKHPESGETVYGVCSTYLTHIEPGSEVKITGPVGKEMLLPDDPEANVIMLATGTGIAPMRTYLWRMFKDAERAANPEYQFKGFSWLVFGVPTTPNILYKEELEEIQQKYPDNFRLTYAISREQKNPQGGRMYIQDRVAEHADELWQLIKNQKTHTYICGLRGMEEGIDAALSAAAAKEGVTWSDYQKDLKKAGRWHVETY
recorded_endpoint: IC50
Reply with a number, then the unit it belongs to.

Give the value of IC50 reported for the following: O=C(Nc1ccc(Cl)cc1)Nc1nnc(SCc2ccc(Cl)cc2)s1 102 µM

Give the value of IC50 reported for the following: CSc1sc(NC(=O)Nc2cccc(C(F)(F)F)c2)cc1C#N [D2] 27 µM

Give the value of IC50 reported for the following: Cc1c(S(=O)(=O)c2ccc(Cl)cc2)csc1C(=O)Nc1ccc(F)cc1F 122 µM

###

- assay_target: XccFPR (Xanthomonas citri pv. citri)
- Sequence (A0AAI7ZED9 1-259): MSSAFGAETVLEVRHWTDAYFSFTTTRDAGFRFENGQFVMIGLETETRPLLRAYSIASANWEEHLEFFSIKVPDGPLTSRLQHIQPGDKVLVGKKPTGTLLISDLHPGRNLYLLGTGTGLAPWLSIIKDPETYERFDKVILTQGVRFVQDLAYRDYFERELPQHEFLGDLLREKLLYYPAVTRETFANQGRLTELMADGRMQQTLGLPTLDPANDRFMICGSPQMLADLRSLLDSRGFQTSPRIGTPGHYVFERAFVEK
- protocol_details: Inhibition constants and mechanisms, XccFPR diaphorase activity as a function of NADPH at increasing inhibitor concentrations
- Type: biochemical, Xanthomonas citri subsp. citri
- condition_notes: versus NADPH; 25 °C, 50 mM Tris/HCl, 2% DMSO, pH 8.0
- Procedure: When assayed in regular cuvettes, the DCPIP diaphorase activity of XccFPR was determined at 25 °C using a Cary 100 (Agilent Technologies Inc., Santa Clara, CA, USA) spectrophotometer as previously established. […] Positive controls (without any hit compound) were included in every reaction set. […] The DMSO concentration was kept at 2% in all samples. […] The effect of the inhibitors on Km and kcat was determined by fitting the datasets to the Michaelis-Menten model. […]
recorded_endpoint: Inhibition Mechanism

{"compound": "CSc1sc(NC(=O)Nc2ccc(F)c(Cl)c2)c(-c2ccc(Cl)cc2)c1C#N [C12]", "assay_target": "XccFPR (Xanthomonas citri pv. citri)", "observed_result": "Non-competitive"}
{"compound": "Cc1c(S(=O)(=O)c2ccc(Cl)cc2)csc1C(=O)Nc1ccc(F)cc1F [D8]", "assay_target": "XccFPR (Xanthomonas citri pv. citri)", "observed_result": "Non-competitive"}
{"compound": "O=C(Nc1ccc(Cl)cc1)Nc1nnc(SCc2ccc(Cl)cc2)s1 [D5]", "assay_target": "XccFPR (Xanthomonas citri pv. citri)", "observed_result": "Non-competitive"}

###

- assay_target: XccFPR (Xanthomonas citri pv. citri, UniProt A0AAI7ZED9)
- protocol_details: NADPH-dependent DCPIP diaphorase activity of XccFPR, dose-response of inhibitors
- Assay type: biochemical, Xanthomonas citri subsp. citri
Attribute: IC50
Write down the numeric answer in µM and omit the unit.

Some molecules with recorded IC50:
{"molecule": "Cc1cc(C)c2cc(C(=O)Nc3ccc4c(c3)OCO4)[nH]c2c1", "units_of_measure": "µM", "observed_result": 53}
{"molecule": "C#CC1(NC(=O)NCCCCCCNC(=O)NC2(C#C)CCCCC2)CCCCC1", "units_of_measure": "µM", "observed_result": 85}
{"molecule": "Cn1cc(Br)c(/C=N/Nc2ccc(Cl)cc2Cl)n1", "units_of_measure": "µM", "observed_result": 27}
{"molecule": "O=C(COC(=O)c1cccc(I)c1)c1ccccc1 [C35, 2-oxo-2-phenylethyl 3-iodobenzoate]", "units_of_measure": "µM", "observed_result": 63}
{"molecule": "CSc1sc(NC(=O)N2CCOCC2)c(-c2ccc(Cl)cc2)c1C#N", "units_of_measure": "µM", "observed_result": 113}

Give the value of IC50 reported for the following: COc1ccc(C(C)=O)cc1CO/N=C1\CSCc2ccccc21 58

Give the value of IC50 reported for the following: Brc1csc(C2SCCS2)c1 90

Give the value of IC50 reported for the following: O=C(CCn1c(=O)oc2ccccc21)Sc1ccc(Cl)cc1Cl 30

Give the value of IC50 reported for the following: N#CC(NCc1ccccc1)c1ccc(Cl)c(Cl)c1 (stereo not shown) 95
